All figures here come from PubChem BioAssay AID1159580.

assayText: chemical genetic growth profiling, strain panel (AID 1159580);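 note: tested at 20 µM; growth read once vehicle control cultures reached saturation at 30 °C; 1 = growth at the plate median or of vehicle wells; lower values mean less growth of the strain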
conditionsUsed: S. cerevisiae deletion strains, growth OD, locus YGR135W, strain pre9
The campaign covered roughly 5,500 compounds. About 2,000 (36%) were called active. Inconclusive results (about 18%) are left out. Cut-off read from the data, not from the text of the source: active = normalized growth mostly below about 0.91 (no sharp cut-off); inconclusive = no clear call, values can overlap the other calls; inactive = mostly above about 0.92. Some of the results follow.
Outcome codes: label 1 = active, label 0 = inactive

molecule | qualitativeLabel
C/C=C/CC(C)C(O)C1C(=O)NC(CC)C(=O)N(C)CC(=O)N(C)C(CC(C)C)C(=O)NC(C(C)C)C(=O)N(C)C(CC(C)C)C(=O)NC(C)C(=O)NC(C)C(=O)N(C)C(CC(C)C)C(=O)N(C)C(CC(C)C)C(=O)N(C)C(C(C)C)C(=O)N1C (configuration not stated) | label 0
CCC(=O)OCC(=O)C1(OC(=O)CC)C(C)CC2C3CCC4=CC(=O)C=CC4(C)C3(Cl)C(O)CC21C (configuration not stated) | label 0
CC(=O)N1CCN(c2ccc(OCC3CO[C@](Cn4ccnc4)(c4ccc(Cl)cc4Cl)O3)cc2)CC1 (some centres not stated) | label 1
COC1=CC(C)[C@@H]2C[C@H]3OC(=O)C[C@H]4C(C)=C(OC)C(=O)C([C@@]34C)[C@@]2(C)C1=O (some centres not stated) | label 0
CC[C@@]1(O)C(=O)OCc2c1cc1n(c2=O)Cc2cc3cc(O)ccc3nc2-1 | label 0
C[C@]12CCC(=O)C=C1CCc1ccc(O)cc12 | label 0
CC1(C)O[C@@H]2CC3C4C[C@H](F)C5=CC(=O)CC[C@]5(C)C4[C@@H](O)C[C@]3(C)[C@]2(C(=O)CO)O1 (some centres not stated) | label 0
